Tested on: serum protein
Run description: Serum protein binding by equilibrium dialysis
Assay type: in vitro ADME, patients
Condition label: human, sera from 9 patients dialyzed at 20° C., read-out: digitoxin binding (protein binding), mean (converted)
Protocol: Equilibrium was obtained after 16 hours when titrated glycoside was added to serum. When added to the buffer phase, equilibrium was reached after 60 hours. Distribution of digitoxin, for example, in buffer-buffer control, was around 50% (49.4 to 50.6%). Absorption of ^3H-labeled glycoside to the dialysis membrane was 0.2% of the added ^3H-glycoside. […] The counting error for buffer samples containing the smallest amount of radioactivity was 1% to 1.5%. […]
Recorded metric: fraction unbound

// fraction unbound lookup, key: C[C@H]1O[C@@H](O[C@H]2[C@@H](O)C[C@H](O[C@H]3[C@@H](O)C[C@H](O[C@H]4CC[C@@]5(C)[C@H](CC[C@@H]6[C@@H]5CC[C@]5(C)[C@@H](C7=CC(=O)OC7)CC[C@]65O)C4)O[C@@H]3C)O[C@@H]2C)C[C@H](O)[C@@H]1O 0.033

###

Tested on: serum protein
Run description: Free fraction by centrifugation
Type: in vitro ADME
Condition label: centrifugation time 10 minutes, 500 g
Recorded metric: fraction unbound at 10 min
Output spec: single numeric token, no unit.

Returns the measured fraction unbound at 10 min for the input compound. Input: C[C@H]1O[C@@H](O[C@H]2[C@@H](O)C[C@H](O[C@H]3[C@@H](O)C[C@H](O[C@H]4CC[C@@]5(C)[C@H](CC[C@@H]6[C@@H]5CC[C@]5(C)[C@@H](C7=CC(=O)OC7)CC[C@]65O)C4)O[C@@H]3C)O[C@@H]2C)C[C@H](O)[C@@H]1O 0.18

###

Test system: serum protein
Run description: Free fraction by centrifugation
Type: in vitro ADME
Condition label: centrifugation time 60 minutes, 135 g
Recorded metric: fraction unbound at 60 min
Answer with a bare number; do not write a unit.

Please report the recorded fraction unbound at 60 min for C[C@H]1O[C@@H](O[C@H]2[C@@H](O)C[C@H](O[C@H]3[C@@H](O)C[C@H](O[C@H]4CC[C@@]5(C)[C@H](CC[C@@H]6[C@@H]5CC[C@]5(C)[C@@H](C7=CC(=O)OC7)CC[C@]65O)C4)O[C@@H]3C)O[C@@H]2C)C[C@H](O)[C@@H]1O . 0.059

###

System: serum protein
Run description: Free fraction by centrifugation
Assay type: in vitro ADME
Condition label: centrifugation time 80 minutes, 500 g
Recorded metric: fraction unbound at 80 min
# answer = number (no unit)

I would be grateful if you could share the reported fraction unbound at 80 min for C[C@H]1O[C@@H](O[C@H]2[C@@H](O)C[C@H](O[C@H]3[C@@H](O)C[C@H](O[C@H]4CC[C@@]5(C)[C@H](CC[C@@H]6[C@@H]5CC[C@]5(C)[C@@H](C7=CC(=O)OC7)CC[C@]65O)C4)O[C@@H]3C)O[C@@H]2C)C[C@H](O)[C@@H]1O [digitoxin] . 0.37

Measured values drawn from patent US20060069043A1 for this set.
